method: physchem
settings: pH 7.4
measured_parameter: solubility

compound="O=[N+]([O-])c1cn2c(n1)OC[C@@H](OCc1ccc(OC(F)(F)F)cc1)C2 [pretomanid 6, pretomanid, reference compound]" measured_parameter=solubility result="10.6 µM"

----------
method: in vitro
settings: human, Caco-2, pH 7.4
measured_parameter: Papp A→B at 2 h, 2 µM (×10⁻⁶ cm/s)

compound="CC(Cc1ccc(O)cc1)NCC(O)c1cc(O)cc(O)c1 (centres unmarked) [fenoterol]" measured_parameter="Papp A→B at 2 h, 2 µM" numeric_result=0.27
compound="O=[N+]([O-])c1cn2c(n1)OC[C@@H](OCc1ccc(OC(F)(F)F)cc1)C2 [pretomanid 6, pretomanid, reference compound]" measured_parameter="Papp A→B at 2 h, 2 µM" numeric_result=29

----------
Tested on: L. donovani MHOM/IN/80/DD8 (ATCC50212)
method: L. donovani DD8 intracellular (THP-1) amastigote assay
Type: cell-based
settings: Leishmania donovani, read-out: antiparasitic pIC50 ± SE L. donovani (converted)
measured_parameter: IC50

molecule="O=c1[nH]c(-c2ccccc2)cn2cc([N+](=O)[O-])nc12 [24a]" result="> 79.4 µM"
molecule="CC(=O)OCCn1c(-c2ccccc2)cn2cc([N+](=O)[O-])nc2c1=O [24b]" result="> 79.4 µM"
molecule="O=c1c2nc([N+](=O)[O-])cn2ccn1CCO [17p]" result="> 79.4 µM"
molecule="CC(=O)OCCn1ccn2cc([N+](=O)[O-])nc2c1=O [17o]" result="> 79.4 µM"
molecule="O=c1c2nccn2ccn1Cc1ccc(F)cc1 [20c]" result="> 79.4 µM"
molecule="O=c1[nH]ccn2cc([N+](=O)[O-])nc12 [17a, 2-Nitroimidazo[1,2-a]pyrazin-8(7H)-one]" result="> 79.4 µM"
molecule="O=c1c2nc([N+](=O)[O-])cn2ccn1CCc1ccc(OC(F)(F)F)cc1 [17m]" result="> 79.4 µM"
molecule="Cc1cn2cc([N+](=O)[O-])nc2c(OCc2ccccc2OC(F)(F)F)n1 [25m]" result="> 39.8 µM"
molecule="O=c1c2nc([N+](=O)[O-])cn2ccn1Cc1ccc(F)cc1F [17j]" result="> 39.8 µM"
molecule="Cc1cn2cc([N+](=O)[O-])nc2c(=O)n1CCO [25d]" result="> 79.4 µM"
molecule="Cc1nc(OCc2ccc(OC(F)(F)F)cc2)c2nc([N+](=O)[O-])cn2c1C [26c]" result="> 79.4 µM"
molecule="CC(=O)OCCOc1nc(C)cn2cc([N+](=O)[O-])nc12 [25c]" result="> 79.4 µM"
molecule="CC(c1ccc(F)cc1)n1ccn2cc([N+](=O)[O-])nc2c1=O (centres unmarked) [17l]" result="> 79.4 µM"
molecule="O=c1c2nc([N+](=O)[O-])cn2ccn1Cc1ccc(F)cc1 [17e]" result="> 79.4 µM"
molecule="O=c1c2nc([N+](=O)[O-])cn2ccn1Cc1cccc(C(F)(F)F)c1 [17h]" result="> 39.8 µM"
molecule="O=c1c2nc([N+](=O)[O-])cn2ccn1Cc1ccc(OC(F)(F)F)cc1 [17c]" result="> 79.4 µM"
molecule="Cc1nc(OCc2cccc(OC(F)(F)F)c2)c2nc([N+](=O)[O-])cn2c1C [26g]" result="> 20 µM"
molecule="Cc1ccc(Cn2ccn3cc([N+](=O)[O-])nc3c2=O)cc1 [17d]" result="> 79.4 µM"
molecule="O=C(Cn1ccn2cc([N+](=O)[O-])nc2c1=O)N1CCOCC1 [17r]" result="> 79.4 µM"
molecule="O=[N+]([O-])c1cn2cc(-c3ccccc3)nc(OCCO)c2n1 [24e]" result="> 79.4 µM"
